What inhibition at 0.1 µM was measured for each of the following?
molecular target: PD brain-derived alpha-synuclein aggregates (Homo sapiens, UniProt P37840); construct: from tissue; host or cells: human PD donor brain, sarkosyl-insoluble pellet; test: Micro-radiobinding competition assay for the determination of binding affinity; details: 100 nM non-radiolabelled compound; competition over tritiated [3H]-Example-1 ligand; human PD brain-derived alpha-synuclein aggregates; read-out: Micro-radiobinding competition assay Competition at 100 nM (%)
Counter-ions that a name gives are not always drawn.

Examples with answers:
[
  {
    "COMPOUND": "Cc1nc(N2CC[C@H](F)C2)ccc1-c1cc2n(n1)C(=O)N(c1cccnc1)C2",
    "TESTED TARGET": "PD brain-derived alpha-synuclein aggregates (Homo sapiens, UniProt P37840)",
    "REPORTED MEASUREMENT": "48%"
  },
  {
    "COMPOUND": "O=C1N(c2ccccn2)Cc2cc(-c3ccc(N4CC[C@@H](F)C4)nc3)nn21",
    "TESTED TARGET": "PD brain-derived alpha-synuclein aggregates (Homo sapiens, UniProt P37840)",
    "REPORTED MEASUREMENT": "74%"
  }
]

Would you mind listing inhibition at 0.1 µM for each of the following compounds?
1. O=C1N(c2cccnc2)Cc2cc(-c3cnc(N4CC[C@@H](F)C4)cn3)nn21
2. O=C1N(c2cccnc2)Cc2cc(-c3ccc(N4CC[C@H](F)C4)nc3)nn21 [Example 1, hydrochloride]
3. O=C1N(c2cccnc2)Cc2cc(-c3cnc(N4CC[C@H](F)C4)cn3)nn21
4. O=C1N(c2cncs2)Cc2cc(-c3ccc(N4CCC(F)C4)nc3)nn21 (stereo in doubt)

["72%", "56%", "25%", "79%"]
